These data points were gathered from paper PMC8145144.

# System: PepT1
# PROTOCOL SUMMARY: in vitro
# Type: in vitro ADME, human
# STUDY CONDITIONS: human, Caco-2, Papp after Gly-Sar pretreatment
# Description: The route of transport of γ-EV across Caco-2 monolayer cells was determined using 1 mM γ-EV transported for 2 h, following the same protocol as mentioned in Section 2.4. However, in this case, four transport inhibitors were used prior to γ-EV addition in the apical layer, to elucidate the mechanism of transport. […] After the treatment was over, the apical and basal layers were collected, and the concentration of γ-EV was analyzed and represented via Papp. […]
ENDPOINT LABEL: Papp at 2 h, 1 mM (×10⁻⁶ cm/s)
Answers are plain numbers, in ×10⁻⁶ cm/s.

Fill blank: measured Papp at 2 h, 1 mM of the compound CC(C)[C@H](NC(=O)CC[C@H](N)C(=O)O)C(=O)O is ____.
0.798

---

# PROTOCOL SUMMARY: MTT cell viability assay
# Assay type: cell-based, human
# STUDY CONDITIONS: human, Caco-2 cells (differentiated, grown for 15 days), 10 mM, 2 h, read-out: survival rate (cell viability)
ENDPOINT LABEL: viability at 2 h, 10 mM (%)
Give bare numbers, in %.

May I ask what viability at 2 h, 10 mM has been recorded for CC(C)[C@H](NC(=O)CC[C@H](N)C(=O)O)C(=O)O [γ-EV, γ-glutamyl valine] ?
21

---

# PROTOCOL SUMMARY: in vitro
# STUDY CONDITIONS: human, Caco-2
ENDPOINT LABEL: Papp at 2 h, 1 mM (×10⁻⁶ cm/s)
Give bare numbers, in ×10⁻⁶ cm/s.

Param item = CC(C)[C@H](NC(=O)CC[C@H](N)C(=O)O)C(=O)O ; retrieve measured Papp at 2 h, 1 mM.
1.56
